Target: MAO-A (Homo sapiens, UniProt P21397)
Sequence (P21397 whole entry): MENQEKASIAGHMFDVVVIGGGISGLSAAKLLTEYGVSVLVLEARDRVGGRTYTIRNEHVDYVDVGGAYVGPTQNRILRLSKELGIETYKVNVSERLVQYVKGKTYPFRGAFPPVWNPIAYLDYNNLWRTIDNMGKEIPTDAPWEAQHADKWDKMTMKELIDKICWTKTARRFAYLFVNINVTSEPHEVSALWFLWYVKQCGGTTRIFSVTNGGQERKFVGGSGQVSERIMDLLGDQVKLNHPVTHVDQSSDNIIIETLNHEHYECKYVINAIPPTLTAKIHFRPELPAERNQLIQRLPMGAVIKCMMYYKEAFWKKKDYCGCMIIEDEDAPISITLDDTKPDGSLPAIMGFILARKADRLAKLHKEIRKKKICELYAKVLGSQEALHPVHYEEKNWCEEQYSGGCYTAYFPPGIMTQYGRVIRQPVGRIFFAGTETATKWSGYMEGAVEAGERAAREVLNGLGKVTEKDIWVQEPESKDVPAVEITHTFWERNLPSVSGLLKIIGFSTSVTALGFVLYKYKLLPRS
Test: Inhibition of human MAO-A expressed in baculovirus infected BTI insect cells at 10 uM using p-tyramine as substrate preincubated for 30 mins followed by substrate addition and measured after 1 hr by fluorescence-based Amplex Red MAO assay relative to control
Conditions: probe p-tyramine
MEASUREMENT TYPE: inhibition at 1 h, 10 µM

>>> observed("CCC(C)(C)c1ccc(OCCCN2CCCC(C)(C)C2)cc1")
"7%"
>>> observed("CCC(C)(C)c1ccc(OCCCCN2CCCCC2)cc1")
"10%"
>>> observed("CCC(C)(C)c1ccc(OCCCN2CCCCC2C)cc1 (centres undefined)")
"5%"
>>> observed("CCC(C)(C)c1ccc(OCCCN2CCCC(C)C2)cc1 (centres undefined)")
"11%"
>>> observed("CCC(C)(C)c1ccc(OCCCN2CCCCC2)cc1")
"14%"
>>> observed("CCC(C)(C)c1ccc(OCCCN2CCCC2)cc1")
"5%"
>>> observed("CCC(C)(C)c1ccc(OCCCN2C(C)CCCC2C)cc1 (centres undefined)")
"5%"
>>> observed("CCC(C)(C)c1ccc(OCCCN2CCCCCC2)cc1")
"12%"
>>> observed("CCC(C)(C)c1ccc(OCCCN2CC(C)CC(C)C2)cc1 (centres undefined)")
"7%"

---

Target sequence: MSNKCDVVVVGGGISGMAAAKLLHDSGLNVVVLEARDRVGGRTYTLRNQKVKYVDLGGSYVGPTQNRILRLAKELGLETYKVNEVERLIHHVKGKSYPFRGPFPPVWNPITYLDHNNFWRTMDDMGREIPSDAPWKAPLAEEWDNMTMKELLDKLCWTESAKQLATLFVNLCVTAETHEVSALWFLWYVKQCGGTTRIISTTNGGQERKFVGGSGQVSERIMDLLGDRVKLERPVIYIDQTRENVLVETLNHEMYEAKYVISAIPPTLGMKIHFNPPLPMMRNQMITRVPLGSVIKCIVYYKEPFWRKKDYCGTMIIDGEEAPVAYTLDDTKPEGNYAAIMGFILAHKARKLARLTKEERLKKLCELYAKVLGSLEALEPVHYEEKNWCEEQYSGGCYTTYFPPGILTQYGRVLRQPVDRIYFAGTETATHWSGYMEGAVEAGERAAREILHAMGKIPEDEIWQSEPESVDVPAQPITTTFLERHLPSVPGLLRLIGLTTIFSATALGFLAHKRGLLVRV
pIC50: −log10 of the molar value.
MEASUREMENT TYPE: pIC50

>>> observed("CCC(C)(C)c1ccc(OCCCCN2CCC(C)CC2)cc1")
"< 6.00"
>>> observed("CCC(C)(C)c1ccc(OCCCCCN2CCCC(C)C2)cc1 (stereo unspecified)")
"< 6.00"
>>> observed("CCC(C)(C)c1ccc(OCCCN2C(C)CCCC2C)cc1 (stereo unspecified)")
7.66
>>> observed("CCC(C)(C)c1ccc(OCCCCCCCN2CCC(C)CC2)cc1")
"< 6.00"
>>> observed("CCC(C)(C)c1ccc(OCCCCCCCN2CCCCC2)cc1")
"< 6.00"
>>> observed("CCC(C)(C)c1ccc(OCCCN2CCCC(C)C2)cc1 (stereo unspecified)")
6.37

---

Target: Amine oxidase [flavin-containing] B (Homo sapiens)
Assay: Inhibition of human MAO-B expressed in baculovirus infected BTI insect cells at 1 uM using p-tyramine as substrate preincubated for 30 mins followed by substrate addition and measured after 1 hr by fluorescence-based Amplex Red MAO assay relative to control
Form field: inhibition at 1 µM (one value per entry).
MEASUREMENT TYPE: inhibition at 1 µM (%)

>>> observed("CCC(C)(C)c1ccc(OCCCCCN2CCCC(C)C2)cc1 (centres undefined)")
29
>>> observed("CCC(C)(C)c1ccc(OCCCCCCCCN2CCCCCC2)cc1")
40
>>> observed("CCC(C)(C)c1ccc(OCCCCCCCCN2CCCC(C)C2)cc1 (centres undefined)")
33
>>> observed("CCC(C)(C)c1ccc(OCCCCCN2CCCCC2)cc1")
28
>>> observed("CCC(C)(C)c1ccc(OCCCCN2CCC(C)CC2)cc1")
47
>>> observed("CCC(C)(C)c1ccc(OCCCCCCN2CCCC(C)C2)cc1 (centres undefined)")
46
>>> observed("CCC(C)(C)c1ccc(OCCCCCCCN2CCCCC2)cc1")
18
>>> observed("CCC(C)(C)c1ccc(OCCCCCCN2CCC(C)CC2)cc1")
37
>>> observed("CCC(C)(C)c1ccc(OCCCCCCCCN2CCCCC2)cc1")
22
>>> observed("CCC(C)(C)c1ccc(OCCCCCCCN2CCCC(C)C2)cc1 (centres undefined)")
35
>>> observed("CCC(C)(C)c1ccc(OCCCCCCCCN2CCC(C)CC2)cc1")
37
>>> observed("CCC(C)(C)c1ccc(OCCCCCCCN2CCC(C)CC2)cc1")
35
>>> observed("CCC(C)(C)c1ccc(OCCCCCN2CCC(C)CC2)cc1")
48
>>> observed("CCC(C)(C)c1ccc(OCCCCCCN2CCCCC2)cc1")
21
